- measurement-target: α1-adrenoceptors
- assay-name: Binding assay, displacement of 0.1 nM 3H-prazosin in rat neocortical membranes
- study-conditions: 30 min at 25° C., at least three independent experiments
- Protocol: Affinities for α2-adrenoceptors and α1-adrenoceptors were estimated by determining the displacement of 1 nM ^3H-RX821002 (α2) or 0.1 nM ^3H-prazosin (α1) from α-adrenoceptors in rat neocortical membranes. […] Filters were then dried, impregnated with a scintillation cocktail and counted in a scintillation counter. Experimental data was analyzed using the commercial nonlinear least squares computer program LIGAND. […]
List of pKi α1 values.
Form: value (number only, do not type unit).

compound | measurement-target | pKi α1
CC(c1c[nH]cn1)C1CCc2ccccc21.Cl (centres unmarked) | α1-adrenoceptors | 6.21
Cc1cccc2c1CCC2c1c[nH]cn1.Cl (centres unmarked) | α1-adrenoceptors | 7.31

Can you look up pKi α1 on α1-adrenoceptors for Cl.Oc1ccc2c(c1)C(Cc1c[nH]cn1)CC2 (centres unmarked) ? 6.61

Can you look up pKi α1 on α1-adrenoceptors for Cl.Oc1ccc2c(c1)C(Cc1c[nH]cn1)CCC2 (centres unmarked) ? 6.85

Can you look up pKi α1 on α1-adrenoceptors for Cc1cccc([C@H](C)c2cnc[nH]2)c1C [Compound 5, dexmedetomidine, reference compound] ? 6.48

Provenance of the data: patent US6479530B2
